test system: HepG2-GM130-SQSTM1; assay: phenotypically active (imaging signature differs from DMSO and reproducible) at any of 0.3-9 uM (binary (1 = active, 0 = inactive)); higher = active; conditions: treatment time: 24 h
Counter-ions that a name gives are not always drawn.
Would you mind answering with one of these outcomes? yes (1) for active, no (0) for inactive

Examples from the recorded data:
compound	assigned label
N=C(N)Nc1nc(CSCCC(=N)NS(N)(=O)=O)cs1	no (0)
Fc1ccccc1CNCc1ccc(-c2ccnc3[nH]ccc23)cc1 [OXA 06 dihydrochloride]	yes (1)
CC(=O)Nc1ccc(NC(=S)NC(=O)c2ccc(C(C)(C)C)cc2)cc1	no (0)

Q. Just curious, what result did O=C(Nc1cccnc1)N1CCC(Cc2cccc(Oc3ccc(C(F)(F)F)cn3)c2)CC1 get here?
A. no (0)

Q. Just curious, what result did COc1cc2ncnc(Oc3cccc(NC(=O)Nc4cc(C(C)(C)C(F)(F)F)on4)c3)c2cc1OC get here?
A. no (0)

Q. Just curious, what result did CO[C@H]1C=CO[C@@]2(C)Oc3c(C)c(O)c4c(O)c(c5c(nc6cc(C)ccn65)c4c3C2=O)NC(=O)C(C)=CC=C[C@H](C)[C@H](O)[C@@H](C)[C@@H](O)[C@@H](C)[C@H](OC(C)=O)[C@@H]1C get here?
A. no (0)

Q. Just curious, what result did CN1C(=O)CC(C)(c2ccccc2)C1=O (stereo not drawn) [methsuximide] get here?
A. no (0)

Q. Just curious, what result did Cc1c(O)cccc1C(=O)N[C@@H](CSc1ccccc1)[C@H](O)CN1C[C@H]2CCCC[C@H]2C[C@H]1C(=O)NC(C)(C)C get here?
A. yes (1)

Just for reference, the supplement of paper PMC7411054 is where these values come from.
